Molecular target: GPR43 (Homo sapiens)
Construct: expressed in transfected cells
Sequence (O15552 whole entry): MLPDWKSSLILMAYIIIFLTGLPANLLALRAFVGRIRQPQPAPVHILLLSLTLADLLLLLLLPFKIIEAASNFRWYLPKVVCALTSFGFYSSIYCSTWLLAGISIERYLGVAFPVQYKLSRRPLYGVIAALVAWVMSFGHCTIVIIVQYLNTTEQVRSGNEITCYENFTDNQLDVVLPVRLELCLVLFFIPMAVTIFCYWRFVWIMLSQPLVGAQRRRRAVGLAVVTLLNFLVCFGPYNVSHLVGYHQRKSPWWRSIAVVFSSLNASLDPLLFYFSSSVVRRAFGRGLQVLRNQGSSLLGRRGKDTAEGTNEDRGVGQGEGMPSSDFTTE
Assay: Calcium mobilization assay with probenecid
Format: cell-based
Conditions: GPR43 stably expressing cells; triggered with sodium acetate at EC80; 2.5 mM probenecid; read-out: GPR43 assay with probenicid IC50
Description: The following assay can be used for determination of GPR43 activation. The assay measures intracellular calcium release induced by activation of GPR43. […] To measure agonist activity of the compounds, compound was added to the well and the Ca^2+-flux was measured simultaneously to the […] of compound.
Overview of reported IC50 across a group of molecules:

CC1(C(=O)N(CC(=O)O)Cc2ccc(Cl)cc2)CCN1C(=O)Cc1csc2ccccc12 (stereo not drawn) [Compound 61]	0.01 to 100 nM
CN(Cc1ccc(Cl)cc1)C(=O)C1(C)CCN1C(=O)Cc1cccc(Cl)c1 (stereo not drawn) [Compound 10]	> 1000 nM
COC(=O)[C@H](C)N(Cc1ccc(Cl)cc1)C(=O)C1(C)CCN1C(=O)Cc1cc(C)cc(C)c1 (stereo partly drawn) [Compound 55]	> 1000 nM

Using GPR43 (Homo sapiens) as the test system, report measured IC50 of Cc1cc(C)cc(CC(=O)N2CCC2(C)C(=O)N(CCCC(=O)O)Cc2ccc3cc[nH]c3c2)c1 (stereo not drawn) [Compound 113] .
0.01 to 100 nM

Using GPR43 (Homo sapiens) as the test system, report measured IC50 of Cc1ccc(CNC(=O)C2(C)CCN2C(=O)Cc2ccc(Cl)cc2Cl)cc1 (stereo not drawn) [Compound 43] .
> 1000 nM

Using GPR43 (Homo sapiens) as the test system, report measured IC50 of COC(=O)CCN(Cc1cccc(Cl)c1)C(=O)C1(C)CCN1C(=O)c1csc2ccccc12 (stereo not drawn) [Compound 172] .
101 to 500 nM

Using GPR43 (Homo sapiens) as the test system, report measured IC50 of CC1(C(=O)N(CCCC(=O)O)Cc2ccc(C(F)(F)F)cc2)CCN1C(=O)c1csc2ccccc12 (stereo not drawn) [Compound 145] .
101 to 500 nM

Using GPR43 (Homo sapiens) as the test system, report measured IC50 of O=C(O)CCCN(Cc1cccc(Cl)c1)C(=O)C1(Cc2ccc(Cl)cc2)CCN1C(=O)c1csc2ccccc12 (stereo not drawn) [Compound 225] .
501 to 1000 nM

====

target: GPR43 (Homo sapiens); construct: expressed in transfected cells; assay: Calcium mobilization assay with probenecid; type: cell-based; conditions: GPR43 stably expressing cells; triggered with sodium acetate at EC80; 2.5 mM probenecid; read-out: GPR43 assay with probenicid IC50
Overview of reported IC50 across a group of molecules:

CN(Cc1ccc(Cl)cc1)C(=O)C1(C)CCN1C(=O)Cc1ccc(Cl)c(Cl)c1 (centres unmarked)	> 1000 nM
Cc1cc(C)cc(CC(=O)N2CCC2(C)C(=O)N(CC#N)Cc2ccc(Cl)cc2)c1 (centres unmarked)	101 to 500 nM
CN(Cc1ccc(Cl)cc1)C(=O)C1(C)CCN1C(=O)Cc1ccc(-c2ccc(C#N)cc2)cc1 (centres unmarked)	> 1000 nM
Cc1cc(C)cc(CC(=O)N2CCC2(C)C(=O)N(CC(=O)O)Cc2ccc3cc[nH]c3c2)c1 (centres unmarked)	101 to 500 nM
CCCC1(C(=O)N(CCCC(=O)NS(C)(=O)=O)Cc2cccc(Cl)c2)CCN1C(=O)c1csc2ccccc12 (centres unmarked)	101 to 500 nM

Using GPR43 (Homo sapiens) as the test system, report measured IC50 of CN(Cc1ccc(Cl)cc1)C(=O)C1(C)CCN1C(=O)Cc1cn(C)c2ccccc12 (centres unmarked) .
> 1000 nM

Using GPR43 (Homo sapiens) as the test system, report measured IC50 of CC1(C(=O)N(CCC(=O)O)Cc2cccc(Cl)c2)CCN1C(=O)c1csc2ccccc12 (centres unmarked) .
0.01 to 100 nM

Using GPR43 (Homo sapiens) as the test system, report measured IC50 of CC1(C(=O)N(CCCC(N)=O)Cc2ccc(Cl)cc2)CCN1C(=O)Cc1coc2ccccc12 (centres unmarked) .
101 to 500 nM
